Tested on: PAX3-FOXO1 fusion transcription factor
Assay protocol: RH4 ALK-Luc luciferase reporter assay (PAX3-FOXO1 super enhancer activity)
Assay type: cell-based, human
Recorded conditions: RH4 ALK-Luc reporter; 10 μM
List of Avg Absorbance @ 10 μM, ALK-Luc values.
Outcome measure: Avg Absorbance @ 10 μM, ALK-Luc

Compound: CCCC(=O)NNC(=O)c1ccccn1 [PFI-74]
Target entity: PAX3-FOXO1 fusion transcription factor
Outcome measure: Avg Absorbance @ 10 μM, ALK-Luc
Reported result: 94.7
--
Compound: Cc1cc(C)cc(OCC(=O)NNC(=O)c2ccccn2)c1 [PFI-84]
Target entity: PAX3-FOXO1 fusion transcription factor
Outcome measure: Avg Absorbance @ 10 μM, ALK-Luc
Reported result: 56.5
--
Compound: NNC(=O)c1cccc(C(=O)NN)n1 [PFI-66]
Target entity: PAX3-FOXO1 fusion transcription factor
Outcome measure: Avg Absorbance @ 10 μM, ALK-Luc
Reported result: 91.3
--
Compound: O=C(NNc1ccccn1)c1ccccn1 [PFI-90]
Target entity: PAX3-FOXO1 fusion transcription factor
Outcome measure: Avg Absorbance @ 10 μM, ALK-Luc
Reported result: 34.0
--
Compound: CCC(=O)NNC(=O)c1ccccn1 [PFI-69]
Target entity: PAX3-FOXO1 fusion transcription factor
Outcome measure: Avg Absorbance @ 10 μM, ALK-Luc
Reported result: 94.4
--
Compound: Cc1cccc(C(=O)NNC(=O)c2ccccc2)c1 [PFI-73]
Target entity: PAX3-FOXO1 fusion transcription factor
Outcome measure: Avg Absorbance @ 10 μM, ALK-Luc
Reported result: 122.8
--
Compound: O=CNNC(=O)c1ccccn1 [PFI-70]
Target entity: PAX3-FOXO1 fusion transcription factor
Outcome measure: Avg Absorbance @ 10 μM, ALK-Luc
Reported result: 93.3
--
Compound: Cc1cc(C)cc(C(=O)NNC(=O)c2ccccn2)c1 [PFI-63]
Target entity: PAX3-FOXO1 fusion transcription factor
Outcome measure: Avg Absorbance @ 10 μM, ALK-Luc
Reported result: 40.1
--
Compound: CC(=O)NNC(=O)c1ccc2ccccc2n1 [PFI-80]
Target entity: PAX3-FOXO1 fusion transcription factor
Outcome measure: Avg Absorbance @ 10 μM, ALK-Luc
Reported result: 96.6
--
Compound: Cc1nc(C)c(C(=O)NN)cc1C(=O)NN [PFI-78]
Target entity: PAX3-FOXO1 fusion transcription factor
Outcome measure: Avg Absorbance @ 10 μM, ALK-Luc
Reported result: 95.3
--
Compound: Cc1nc(C)c(C(=O)NNC(=O)c2ccccc2)cc1C(=O)NNC(=O)c1ccccc1 [PFI-75]
Target entity: PAX3-FOXO1 fusion transcription factor
Outcome measure: Avg Absorbance @ 10 μM, ALK-Luc
Reported result: 110.5
--
Compound: CC(=O)NNC(=O)c1ccccn1 [PFI-68]
Target entity: PAX3-FOXO1 fusion transcription factor
Outcome measure: Avg Absorbance @ 10 μM, ALK-Luc
Reported result: 98.0
